Reference source: patent US20240368150A1

- System: primary human T-cells
- assay: Proliferation assay after 5 days (CellTiter-Glo, CD3 stimulation; PBS counter screen)
- Assay type: cell-based
- measurement setup: Homo sapiens, T-cell, 120 h, primary human T-cells, CD3 stimulation, CellTiter-Glo after 5 days; EC50 of fitted sigmoidal curve; read-out: Tcell Proliferation CD3 EC50
measurement label: pEC50
Give bare numbers, as −log10 of the molar value.

// below: answered molecules
INSERT INTO measurements (molecule, measured_number) VALUES
  ('CCN1CCC(C)(c2nc(-c3cc4c(cc3F)S(=O)(=O)C[C@H](N)C(=O)N4Cc3ccc(Cl)cc3)no2)CC1 [Example 306]', 5.46),
  ('CC(C)(C)c1nnc(-c2cc3c(cc2F)S(=O)(=O)C[C@H](N)C(=O)N3Cc2ccc(Cl)nn2)o1 [Example 251]', 5.28),
  ('N[C@H]1CS(=O)(=O)c2cc(F)c(-c3nnc(C(=O)N4CCCC(F)(F)C4)o3)cc2N(Cc2ccc(Cl)cc2)C1=O [Example 93]', 5.76);

API: the following record is the query input.
# lookup: pEC50 of CC(=O)N1CC(c2nnc(-c3cc4c(cc3F)S(=O)(=O)C[C@H](N)C(=O)N4Cc3ccc(Cl)cc3)o2)CC(F)(F)C1 (stereo partly shown) [Example 162]
6.20

* * *

Measurement record for primary human T-cells; quantity recorded: pEC50.
Numbers only, as −log10 of the molar value.

// below: answered compounds
INSERT INTO assay_data (compound, measured_number) VALUES
  ('CC1(c2nnc(-c3cc4c(cc3F)S(=O)(=O)C[C@H](N)C(=O)N4Cc3ccc(Cl)cc3)o2)CCCO1 (stereo partly drawn)', 6.16),
  ('CC(=O)N1CCC(n2nnc(-c3cc4c(cc3F)S(=O)(=O)C[C@H](N)C(=O)N4Cc3ccc(Cl)cc3)n2)CC1', 5.89),
  ('COC(=O)N1CC(n2nnc(-c3cc4c(cc3F)S(=O)(=O)C[C@H](N)C(=O)N4Cc3ccc(Cl)cc3)n2)CC(F)(F)C1 (stereo partly drawn)', 5.88),
  ('CN1CCC(F)(F)C(c2nnc(-c3cc4c(cc3F)S(=O)(=O)C[C@H](N)C(=O)N4Cc3ccc(Cl)cc3)o2)C1 (stereo partly drawn)', 6.71),
  ('N[C@H]1CS(=O)(=O)c2ccc(-c3nnc(N4CC5(CCCO5)C4)o3)cc2N(Cc2ccc(Cl)cc2)C1=O', 5.09);

API: the following record is the query input.
# lookup: pEC50 of CC1(Nc2nnc(-c3cc4c(cc3F)S(=O)(=O)C[C@H](N)C(=O)N4Cc3ccc(Cl)cc3)o2)CC(F)(F)C1
6.34

* * *

Measurement record for primary human T-cells; quantity recorded: pEC50.
Give bare numbers, as −log10 of the molar value.

// below: answered compounds
INSERT INTO assay_data (compound, measured_number) VALUES
  ('CN1CC(C)(c2nnc(-c3cc4c(cc3F)S(=O)(=O)C[C@H](N)C(=O)N4Cc3ccc(Cl)cc3)o2)C1', 6.11),
  ('CN1CCCC(C)(c2nnc(-c3cc4c(cc3F)S(=O)(=O)C[C@H](N)C(=O)N4Cc3ccc(Cl)cc3)o2)C1 (stereo partly shown)', 6.39),
  ('CS(=O)(=O)N1CCC(n2nnc(-c3cc4c(cc3F)S(=O)(=O)C[C@H](N)C(=O)N4Cc3ccc(Cl)cc3)n2)C1 (stereo partly shown)', 5.93);

Dear reader, for each entry below, please note its pEC50.
1. CC(C)(C)c1nnc(-c2cc3c(cc2F)S(=N)(=O)C[C@H](N)C(=O)N3Cc2ccc(OC(F)(F)F)cc2)o1 (single isomer, unassigned) [Example 517]
2. COC(=O)N1CC(c2nnc(-c3cc4c(cc3F)S(=O)(=O)C[C@H](N)C(=O)N4Cc3ccc(Cl)cc3)o2)C1
3. COC(=O)N1CCC(c2nnc(-c3ccc4c(c3)N(Cc3ccc(OC(F)(F)F)cc3)C(=O)[C@@H](N)CS4(=O)=O)o2)C1 (stereo partly shown)

6.52
5.78
5.82

* * *

- Test system: primary human T-cells
- assay: Proliferation assay after 5 days (CellTiter-Glo, CD3 stimulation; PBS counter screen)
- Assay type: cell-based
- measurement setup: Homo sapiens, T-cell, 120 h, primary human T-cells, CD3 stimulation, CellTiter-Glo after 5 days; EC50 of fitted sigmoidal curve; read-out: Tcell Proliferation CD3 EC50
measurement label: pEC50
Numbers only, as −log10 of the molar value.

// below: answered molecules
INSERT INTO results (molecule, measured_number) VALUES
  ('CC1(c2nnc(-c3cc4c(cc3F)S(=O)(=O)C[C@H](N)C(=O)N4Cc3ccc(Cl)cc3)o2)CCN(S(C)(=O)=O)CC1', 5.82),
  ('CC(C)OCc1nnc(-c2cc3c(cc2F)S(=O)(=O)C[C@H](N)C(=O)N3Cc2ccc(Cl)cc2)o1', 6.21),
  ('CC(C)Nc1nnc(-c2ccc3c(c2)N(Cc2ccc(Cl)cc2)C(=O)[C@@H](N)CS3(=O)=O)o1', 5.46);

Dear reader, for each entry below, please note its pEC50.
1. CC(C)(C)c1nc(-c2cc3c(cc2F)S(=O)(=O)C[C@H](N)C(=O)N3Cc2ccc(F)cc2)no1
2. CS(=O)(=O)N1CC(c2nnc(-c3cc4c(cc3F)S(=O)(=O)C[C@H](N)C(=O)N4Cc3ccc(Cl)cc3)o2)CC(F)(F)C1 (stereo partly shown)
3. COCCN1CCCC(F)(c2nnc(-c3ccc4c(c3)N(Cc3ccc(Cl)cc3)C(=O)[C@@H](N)CS4(=O)=O)o2)C1 (stereo partly shown)

1. 5.94
2. 6.54
3. 5.64

Dear reader, for each entry below, please note its pEC50.
1. CC1(c2nnc(-c3cc4c(cc3F)S(=O)(=O)C[C@H](N)C(=O)N4Cc3ccc(Cl)cc3)o2)CC1
2. CC(C)(C)c1nnc(-c2cc3c(cc2F)S(=O)(=O)C[C@H](N)C(=O)N3Cc2ccc(F)c(F)c2)o1
3. N[C@H]1CS(=O)(=O)c2cc(F)c(-c3nnc(NCC(F)(F)F)o3)cc2N(Cc2ccc(Cl)cc2)C1=O

1. 6.97
2. 6.35
3. 5.92

* * *

- Tested on: primary human T-cells
- assay: Proliferation assay after 5 days (CellTiter-Glo, CD3 stimulation; PBS counter screen)
- Format: cell-based
- measurement setup: Homo sapiens, T-cell, 120 h, CD3 stimulation, 5 days; normalized to reference compound A1 as stimulator control = 100%, DMSO neutral control; read-out: Emax proliferation (% activation)
- Method: Compounds are then added (see next section) to medium only plates. Cells are assessed for proliferation 5 days later by measuring […] using CellTiterGlo (Promega). After 5 days, for detection of ATP which is directly proportional to the number of cells present per well, the CellTiter-Glo® 2.0 Reagent is used. […] Luminescence is measured with PHERAstar FSX (interval time 0.5 sec, gain 3000, focal height 15 mm) and exported as CSV file for analysis in Genedata screener. […]
Give Emax for every item shown.
One number for each entry, in %.

// below: answered compounds
INSERT INTO results (compound, measurement_label, measured_number) VALUES
  ('Cc1cc(S(C)(=O)=O)ccc1-c1nc(-c2cc3c(cc2F)S(=O)(=O)C[C@H](N)C(=O)N3Cc2ccc(Cl)cc2)no1', 'Emax', 78),
  ('COC(=O)N1CC2CC2(c2nnc(-c3cc4c(cc3F)S(=O)(=O)C[C@H](N)C(=O)N4Cc3ccc(Cl)cc3)o2)C1 (stereo partly shown)', 'Emax', 131),
  ('CC(C)(C)c1nnc(-c2cc3c(cc2F)S(=O)(=O)C[C@H](N)C(=O)N3Cc2cccc(Cl)c2)o1', 'Emax', 105),
  ('CC(C)(c1nnc(-c2cc3c(cc2F)S(=O)(=O)C[C@H](N)C(=O)N3Cc2ccc(Cl)cc2)o1)C(N)C(F)(F)F (stereo partly shown)', 'Emax', 99),
  ('Cc1ccc(-c2nnc(-c3cc4c(cc3F)S(=O)(=O)C[C@H](N)C(=O)N4Cc3ccc(Cl)cc3)o2)nc1', 'Emax', 106);

Dear reader, for each entry below, please note its Emax.
1. CN(C)C(=O)c1nc(-c2cc3c(cc2F)S(=O)(=O)C[C@H](N)C(=O)N3Cc2ccc(Cl)cc2)no1
2. N[C@H]1CS(=O)(=O)c2cc(F)c(-c3noc(C(N)(c4ccc(F)cc4)C(F)(F)F)n3)cc2N(Cc2ccc(Cl)cc2)C1=O (stereo partly shown)
3. COC(=O)N1CC(Nc2nnc(-c3cc4c(cc3F)S(=O)(=O)C[C@H](N)C(=O)N4Cc3ccc(Cl)cc3)o2)CC(F)(F)C1 (stereo partly shown)
4. CC(C)(C)c1nnc(-c2ccc3c(c2)N(Cc2ccc(Cl)cc2)C(=O)[C@@H](N)CS3(=O)=O)o1
5. CC(C)(C)NC(=O)c1nc(-c2ccc3c(c2)N(Cc2ccc(Cl)cc2)C(=O)[C@@H](N)CS3(=O)=O)no1

1. 111
2. 193
3. 72
4. 100
5. 77
